Assay: in vivo
Particulars: Balb/C, mouse, iv, 1 mg/kg, T1/2
Reported Metric: half-life (min)

# Molecule, Display Unit, Endpoint Result
records = [
    ("CC(=O)N[C@@H]1C(NC(=N)N)C(F)[C@](F)(C(=O)O)OC1[C@H](O)[C@H](O)CO (stereo partly shown)", "min", 8.3),
]

====

Tested on: MDCK cells
Particulars: dog

# Compound, Target, Relative toxicity
measured = [
    ("CCOC(=O)[C@]1(F)OC([C@H](O)[C@H](O)CO)[C@H](NC(C)=O)C(NC(=N)N)C1F (stereo partly shown) [Compound 13]", "MDCK cells", 400.0),
    ("CC(=O)N[C@H]1[C@H]([C@H](O)[C@H](O)CO)OC(C(=O)O)=C[C@@H]1N=C(N)N [Zanamivir, reference compound]", "MDCK cells", 1.0),
    ("CCOC(=O)[C@]1(F)OC([C@H](O)[C@H](O)CO)[C@H](NC(C)=O)C(N)C1F (stereo partly shown) [Compound 5]", "MDCK cells", 4.5),
    ("CC(=O)N[C@@H]1C(N)C(F)[C@](F)(C(N)=O)OC1[C@H](O)[C@H](O)CO (stereo partly shown) [Compound 9]", "MDCK cells", 75.5),
    ("CC(=O)N[C@@H]1C(N=[N+]=[N-])C(F)[C@](F)(C(=O)O)OC1[C@H](O)[C@H](O)CO (stereo partly shown) [Compound 8]", "MDCK cells", 10.6),
    ("CCNC1C(F)[C@](F)(C(=O)O)OC([C@H](O)[C@H](O)CO)[C@@H]1NC(C)=O (stereo partly shown) [Compound 7]", "MDCK cells", 72.7),
    ("CC(=O)NC1C(F)[C@](F)(C(=O)O)OC([C@H](O)[C@H](O)CO)[C@@H]1NC(C)=O (stereo partly shown) [Compound 11]", "MDCK cells", 5.6),
]

====

Target: UniProt P03472
Assay: biochemical
Format: biochemical
Particulars: 30° C., pH 7.6

# Compound, Kd (µM)
records = [
    ("CC(=O)N[C@@H]1C(N)C(F)[C@](F)(C(N)=O)OC1[C@H](O)[C@H](O)CO (stereo partly drawn)", 1020),
    ("CC(=O)N[C@@H]1C(NCc2ccccc2)C(F)[C@](F)(C(=O)O)OC1[C@H](O)[C@H](O)CO (stereo partly drawn)", 306),
    ("CC(=O)N[C@@H]1[C@@H](N)[C@@H](F)[C@](F)(C(=O)O)O[C@H]1[C@H](O)[C@H](O)CO", 4),
    ("CC(=O)NC1C(F)[C@](F)(C(=O)O)OC([C@H](O)[C@H](O)CO)[C@@H]1NC(C)=O (stereo partly drawn)", 397),
    ("CCNC1C(F)[C@](F)(C(=O)O)OC([C@H](O)[C@H](O)CO)[C@@H]1NC(C)=O (stereo partly drawn)", 14),
    ("CC(=O)N[C@@H]1C(NC(=N)N)C(F)[C@](F)(C(=O)O)OC1[C@H](O)[C@H](O)CO (stereo partly drawn)", 9),
]

====

System: MDCK cells
Particulars: dog
// reported Toxicity for each item listed
Reported Metric: Toxicity (µg/mL)

# Compound, Target, Endpoint Result
rows = [
    ("CCOC(=O)[C@]1(F)OC([C@H](O)[C@H](O)CO)[C@H](NC(C)=O)C(N)C1F (some centres unmarked)", "MDCK cells", 125.0),
    ("CC(=O)N[C@H]1[C@H]([C@H](O)[C@H](O)CO)OC(C(=O)O)=C[C@@H]1N=C(N)N [Zanamivir, reference compound]", "MDCK cells", 568),
    ("CCNC1C(F)[C@](F)(C(=O)O)OC([C@H](O)[C@H](O)CO)[C@@H]1NC(C)=O (some centres unmarked)", "MDCK cells", 7.8),
    ("CC(=O)NC1C(F)[C@](F)(C(=O)O)OC([C@H](O)[C@H](O)CO)[C@@H]1NC(C)=O (some centres unmarked)", "MDCK cells", 102.3),
    ("CC(=O)N[C@@H]1C(NC(=N)N)C(F)[C@](F)(C(=O)O)OC1[C@H](O)[C@H](O)CO (some centres unmarked)", "MDCK cells", 0.9),
]

====

System: MDCK cells
Particulars: dog
Reported Metric: Toxicity

# Compound, Target, Endpoint Result
measured = [
    ("CC(=O)N[C@@H]1C(N=[N+]=[N-])C(F)[C@](F)(C(=O)O)OC1[C@H](O)[C@H](O)CO (stereo partly shown) [Compound 8]", "MDCK cells", "53.4 µg/mL"),
    ("CC(=O)N[C@@H]1C(N)C(F)[C@](F)(C(N)=O)OC1[C@H](O)[C@H](O)CO (stereo partly shown) [Compound 9]", "MDCK cells", "7.5 µg/mL"),
    ("CC(=O)N[C@@H]1[C@@H](N)[C@@H](F)[C@](F)(C(=O)O)O[C@H]1[C@H](O)[C@H](O)CO [Compound 4]", "MDCK cells", "3.6 µg/mL"),
    ("CCOC(=O)[C@]1(F)OC([C@H](O)[C@H](O)CO)[C@H](NC(C)=O)C(NC(=N)N)C1F (stereo partly shown) [Compound 13]", "MDCK cells", "1.4 µg/mL"),
]

====

System: influenza A/Denver/1/57 (H1N1)
Assay: microbe, parasite or virus in culture
Type: cell-based, influenza A virus
Particulars: Influenza A virus, H1N1, MDCK, read-out: Cytoprotective effect
// reported minimal effective concentration for each item listed
Reported Metric: minimal effective concentration (µg/mL)

# Molecule, Endpoint Result
rows = [
    ("CC(=O)N[C@@H]1C(N)C(F)[C@](F)(C(N)=O)OC1[C@H](O)[C@H](O)CO (stereo partly drawn) [Compound 9]", 3.76),
    ("CCNC1C(F)[C@](F)(C(=O)O)OC([C@H](O)[C@H](O)CO)[C@@H]1NC(C)=O (stereo partly drawn) [Compound 7]", 3.91),
    ("CCOC(=O)[C@]1(F)OC([C@H](O)[C@H](O)CO)[C@H](NC(C)=O)C(NC(=N)N)C1F (stereo partly drawn) [Compound 13]", 0.71),
]

====

Test system: influenza A/Denver/1/57 (H1N1)
Assay: microbe, parasite or virus in culture
Format: cell-based, influenza A virus
Particulars: Influenza A virus, H1N1, MDCK, read-out: Cytoprotective effect

# Compound, Target, minimal effective concentration
records = [
    ("CC(=O)N[C@@H]1[C@@H](N)[C@@H](F)[C@](F)(C(=O)O)O[C@H]1[C@H](O)[C@H](O)CO", "influenza A/Denver/1/57 (H1N1)", "0.888 µg/mL"),
    ("CC(=O)N[C@@H]1C(O)C(F)[C@](F)(C(=O)O)OC1[C@H](O)[C@H](O)CO (stereo partly drawn) [Compound 23DFSA, 2,3-Difluorosialic acid, reference compound]", "influenza A/Denver/1/57 (H1N1)", "4.26 µg/mL"),
    ("CCOC(=O)[C@]1(F)OC([C@H](O)[C@H](O)CO)[C@H](NC(C)=O)C(N)C1F (stereo partly drawn)", "influenza A/Denver/1/57 (H1N1)", "0.488 µg/mL"),
]

====

System: influenza A/Brisbane/10/2007 (H3N2)
Assay: microbe, parasite or virus in culture
Assay type: cell-based, influenza A virus
Particulars: Influenza A virus, H3N2, MDCK, read-out: Cytoprotective effect
Reported Metric: minimal effective concentration (µg/mL)

# Compound, Display Unit, Endpoint Result
measured = [
    ("CC(=O)N[C@@H]1C(N=[N+]=[N-])C(F)[C@](F)(C(=O)O)OC1[C@H](O)[C@H](O)CO (stereo partly shown) [Compound 8]", "µg/mL", 0.104),
    ("CCOC(=O)[C@]1(F)OC([C@H](O)[C@H](O)CO)[C@H](NC(C)=O)C(NC(=N)N)C1F (stereo partly shown) [Compound 13]", "µg/mL", 0.0444),
    ("CCOC(=O)[C@]1(F)OC([C@H](O)[C@H](O)CO)[C@H](NC(C)=O)C(N)C1F (stereo partly shown) [Compound 5]", "µg/mL", 0.0076),
    ("CC(=O)N[C@@H]1[C@@H](N)[C@@H](F)[C@](F)(C(=O)O)O[C@H]1[C@H](O)[C@H](O)CO [Compound 4]", "µg/mL", 0.0069),
]

====

Target: influenza sialidase (subtype N9) (Influenza A virus)
Sequence (P03472 whole entry, looked up): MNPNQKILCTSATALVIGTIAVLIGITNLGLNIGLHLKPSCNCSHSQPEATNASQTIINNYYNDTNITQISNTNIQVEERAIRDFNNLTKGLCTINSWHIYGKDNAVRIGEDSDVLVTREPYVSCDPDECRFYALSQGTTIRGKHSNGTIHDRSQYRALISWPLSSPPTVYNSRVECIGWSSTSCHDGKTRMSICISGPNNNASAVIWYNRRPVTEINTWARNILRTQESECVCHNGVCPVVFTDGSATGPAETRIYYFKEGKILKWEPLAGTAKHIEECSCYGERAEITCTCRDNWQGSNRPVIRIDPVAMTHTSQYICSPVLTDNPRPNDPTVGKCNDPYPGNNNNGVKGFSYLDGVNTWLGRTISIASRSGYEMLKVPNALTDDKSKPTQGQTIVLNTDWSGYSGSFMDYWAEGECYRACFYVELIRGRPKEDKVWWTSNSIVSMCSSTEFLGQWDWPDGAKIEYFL
Assay: biochemical
Type: biochemical
Particulars: pH 7.6
// reported ki/Kd for each item listed

# Molecule, ki/Kd (min⁻¹ mM⁻¹)
rows = [
    ("CC(=O)N[C@@H]1C(NCc2ccccc2)C(F)[C@](F)(C(=O)O)OC1[C@H](O)[C@H](O)CO (stereo partly shown)", 0.61),
    ("CC(=O)N[C@@H]1C(N)C(F)[C@](F)(C(N)=O)OC1[C@H](O)[C@H](O)CO (stereo partly shown)", 0.34),
    ("CCNC1C(F)[C@](F)(C(=O)O)OC([C@H](O)[C@H](O)CO)[C@@H]1NC(C)=O (stereo partly shown)", 4.1),
    ("CC(=O)NC1C(F)[C@](F)(C(=O)O)OC([C@H](O)[C@H](O)CO)[C@@H]1NC(C)=O (stereo partly shown)", 0.53),
]
